# condition: in acetone, 298.15 K
recorded endpoint: solubility (mole fraction)

Field solubility (mole fraction) (entry O=C1CCC(=O)O1 ) reads 0.143

====

# condition: in ethyl acetate, 298.15 K
recorded endpoint: solubility (mole fraction)
Answer as a number with no unit attached.

Field solubility (mole fraction) (entry O=C1CCC(=O)O1 ) reads 0.0771

====

# condition: in ethyl acetate, 303.15 K
recorded endpoint: solubility (mole fraction)
Answer as a number with no unit attached.

Field solubility (mole fraction) (entry O=C1CCC(=O)O1 ) reads 0.0853

====

# condition: in isopropanol, 293.15 K
recorded endpoint: solubility (mole fraction)
Answer as a number with no unit attached.

Field solubility (mole fraction) (entry O=C1CCC(=O)O1 ) reads 0.0705

====

# condition: in acetonitrile, 283.15 K
recorded endpoint: solubility (mole fraction)
Answer as a number with no unit attached.

Field solubility (mole fraction) (entry O=C1CCC(=O)O1 ) reads 0.121

====

# condition: in isopropanol, 288.15 K
recorded endpoint: solubility (mole fraction)
Answer as a number with no unit attached.

Field solubility (mole fraction) (entry O=C1CCC(=O)O1 ) reads 0.0632

====

# condition: in ethyl acetate, 278.15 K
recorded endpoint: solubility (mole fraction)
Answer as a number with no unit attached.

Field solubility (mole fraction) (entry O=C1CCC(=O)O1 ) reads 0.0485

====

# condition: in ethyl acetate, 288.15 K
recorded endpoint: solubility (mole fraction)
Answer as a number with no unit attached.

Field solubility (mole fraction) (entry O=C1CCC(=O)O1 ) reads 0.0611

====

# condition: in isopropanol, 278.15 K
recorded endpoint: solubility (mole fraction)
Answer as a number with no unit attached.

Field solubility (mole fraction) (entry O=C1CCC(=O)O1 ) reads 0.0502

====

# condition: in acetone, 293.15 K
recorded endpoint: solubility (mole fraction)
Answer as a number with no unit attached.

Field solubility (mole fraction) (entry O=C1CCC(=O)O1 ) reads 0.121

====

# condition: in isopropanol, 298.15 K
recorded endpoint: solubility (mole fraction)
Answer as a number with no unit attached.

Field solubility (mole fraction) (entry O=C1CCC(=O)O1 ) reads 0.0793

====

# condition: in isopropanol, 303.15 K
recorded endpoint: solubility (mole fraction)

Field solubility (mole fraction) (entry O=C1CCC(=O)O1 ) reads 0.0889

====

# condition: in acetonitrile, 303.15 K
recorded endpoint: solubility (mole fraction)
Answer as a number with no unit attached.

Field solubility (mole fraction) (entry O=C1CCC(=O)O1 ) reads 0.156

====

# condition: in ethyl acetate, 283.15 K
recorded endpoint: solubility (mole fraction)
Answer as a number with no unit attached.

Field solubility (mole fraction) (entry O=C1CCC(=O)O1 ) reads 0.0544

====

# condition: in acetonitrile, 278.15 K
recorded endpoint: solubility (mole fraction)

Field solubility (mole fraction) (entry O=C1CCC(=O)O1 ) reads 0.114

====

# condition: in acetone, 303.15 K
recorded endpoint: solubility (mole fraction)
Answer as a number with no unit attached.

Field solubility (mole fraction) (entry O=C1CCC(=O)O1 ) reads 0.166

====

# condition: in acetone, 288.15 K
recorded endpoint: solubility (mole fraction)
Answer as a number with no unit attached.

Field solubility (mole fraction) (entry O=C1CCC(=O)O1 ) reads 0.103
